test: HUVEC growth inhibition – cell-based, human, primary screen (AID 575); conditions: HUVEC proliferation, CellTiter-Glo luminescence, 72 h; at 10 µM; hits give low values;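 note: 100% = median of untreated cell wells with 0.1% DMSO on each plate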
quantity name: viability (%)

{"molecule": "O=C(Nc1ccccc1C(=O)NCCCn1ccnc1)c1ccccc1", "quantity name": "viability", "units of measure": "%", "result number": 94.4}
{"molecule": "COC(=O)c1ccccc1NC(=O)C1CC=CCC1C(=O)O (configuration not stated)", "quantity name": "viability", "units of measure": "%", "result number": 99.7}
{"molecule": "CCN(CCO)C(=O)CC(c1ccccc1)c1cc(Br)ccc1O (configuration not stated)", "quantity name": "viability", "units of measure": "%", "result number": 101}
{"molecule": "Cc1ccccc1OCc1nc2ccccc2c(=O)n1/N=C/c1ccco1", "quantity name": "viability", "units of measure": "%", "result number": 71}
{"molecule": "CC(=O)Nc1ccc(NC(=O)c2cc(C)nn2-c2ccccc2)cc1", "quantity name": "viability", "units of measure": "%", "result number": 89.5}
{"molecule": "C/C(Cl)=C\\Cn1c(NCCc2ccccc2)nc2c1c(=O)n(C)c(=O)n2C", "quantity name": "viability", "units of measure": "%", "result number": 78.7}
{"molecule": "CC1CCN(C(=O)c2cc(-c3ccc(Cl)c(Cl)c3)on2)CC1", "quantity name": "viability", "units of measure": "%", "result number": 77.1}
{"molecule": "CCn1nnnc1SCC(=O)N1CCOCC1", "quantity name": "viability", "units of measure": "%", "result number": 101}
{"molecule": "O=C(Nc1cc(C(F)(F)F)ccc1N1CCCC1)c1ccc2c(c1)OCO2", "quantity name": "viability", "units of measure": "%", "result number": 92.9}
{"molecule": "C=CCN1C(=O)CS/C1=C(\\C#N)S(=O)(=O)c1ccc(C)cc1", "quantity name": "viability", "units of measure": "%", "result number": 96.2}
{"molecule": "Cc1nnc(SCC(=O)NC(C)(C)C)n1CCc1ccccc1", "quantity name": "viability", "units of measure": "%", "result number": 105}
{"molecule": "O=C(CC1CCCCC1)NCc1ccccn1", "quantity name": "viability", "units of measure": "%", "result number": 92.2}

* * *

Catalogue of inhibition values
experiment: 384-well plate pilot, post-Golgi transport modulator project, inhibition of yeast transport mutant growth (AID 636); conditions: absorbance 615 nm, about 18 h, hits give high values
quantity name: inhibition (%)

{"compound": "COc1ccc(N=C2C(=O)Nc3ccccc32)cc1", "quantity name": "inhibition", "result number": -0.4}
{"compound": "CC1=C(/C=C/C(C)=C/C=C/C(C)=C/C(=O)O)C(C)(C)CCC1", "quantity name": "inhibition", "result number": 0.91}
{"compound": "CCc1cn([C@H]2C[C@H](O)[C@@H](CO)O2)c(=O)[nH]c1=O", "quantity name": "inhibition", "result number": -0.26}
{"compound": "O=C(c1ccco1)N1CCN(c2c(-c3ccccc3)c3cc(Cl)ccc3[nH]c2=O)CC1", "quantity name": "inhibition", "result number": -2.11}
{"compound": "O=C(c1ccc(CNS(=O)(=O)c2cccc(C(F)(F)F)c2)cc1)N1CCOCC1", "quantity name": "inhibition", "result number": -8.67}
{"compound": "Cc1c(NC(=O)C(C)Oc2ncnc3ccccc23)c(=O)n(-c2ccccc2)n1C (stereo not drawn)", "quantity name": "inhibition", "result number": -4.42}
{"compound": "CC(C)n1nc(C(=O)Nc2nc3ccc(S(C)(=O)=O)cc3s2)c2ccccc2c1=O", "quantity name": "inhibition", "result number": -4.86}
{"compound": "CN(C)S(=O)(=O)c1ccc(C(=O)N2CCCC2c2nc3ccccc3s2)cc1 (stereo not drawn)", "quantity name": "inhibition", "result number": -1.49}

meta.source: PubChem BioAssay
